B1: PI4K2A (parent)
chain: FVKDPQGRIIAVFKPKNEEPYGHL

variants of: B1; experiment: protein stability index of a GFP-peptide fusion (GPS, HEK-293T) (PSI 1-6); higher = more stable; settings: c terminus: a fixed tail appended;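 note: lentivirally expressed fusions sorted by FACS into six bins by GFP to DsRed ratio, PSI derived from sequencing read proportions per bin multiplied by bin number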
metric: protein stability index
Write the value as a bare number.

Solved entries:
N17L	2.35
L24H	1.76
Q6E	1.63
F1L	2.25

// sample "P5G" , its protein stability index was 1.5

// sample "P15R" , its protein stability index was 2.84

// sample "P15E" , its protein stability index was 2.37
